System: Saccharomyces cerevisiae BY4741 SeMeCo community
assay_name: z-score of subpopulation abundance vs DMSO median, subpopulation auxotrophic for HL; higher = larger share of this subpopulation than in DMSO controls
condition: 10 µM; 24 h; SM minimal medium; subpopulation (auxotrophy): HL
measured_metric: z-score of subpopulation abundance
Could you respond with only the numeric value?

Please review the entries below; each comes with its answer.
compound	assayed_system	z-score of subpopulation abundance
O=c1cccc2n1C[C@@H]1CNC[C@H]2C1	Saccharomyces cerevisiae BY4741 SeMeCo community	-0.4
CC(C)N(CCC(C(N)=O)(c1ccccc1)c1ccccn1)C(C)C (stereo not drawn) [Disopyramide]	Saccharomyces cerevisiae BY4741 SeMeCo community	2.14
CN1[C@@H]2C[C@@H](OC(=O)[C@H](CO)c3ccccc3)C[C@H]1[C@@H]1O[C@@H]12 [Scopolamine HBr trihydrate]	Saccharomyces cerevisiae BY4741 SeMeCo community	-0.72

q: # query: z-score of subpopulation abundance of entry CN(C)[C@@H]1C(=O)C(C(N)=O)=C(O)[C@@]2(O)C(=O)C3=C(O)c4c(O)cccc4[C@@](C)(O)[C@H]3[C@H](O)[C@@H]12 [Oxytetracycline Dihydrate]
a: 0.03

q: // query z-score of subpopulation abundance value for entry O=C(O[C@H]1C[C@H]2CC[C@@H](C1)[N+]21CCCC1)C(O)(c1ccccc1)c1ccccc1 [Trospium chloride]
a: -0.4

q: Quick check: z-score of subpopulation abundance of CCOC(=O)Nc1ccc(NCc2ccc(F)cc2)cc1N [Retigabine] ?
a: 0.75

q: Entry under review: CC(C)=CCOc1c2occc2cc2ccc(=O)oc12 . Reported z-score of subpopulation abundance?
a: 0.34

q: Which z-score of subpopulation abundance is listed for O=c1[nH]c2ccccc2n1CCCN1CCC(n2c(=O)[nH]c3cc(Cl)ccc32)CC1 ?
a: 0.19

---

Tested on: Saccharomyces cerevisiae BY4741 SeMeCo community
assay_name: mean cell size (pixel area) (pixels); higher = larger cells
condition: 10 µM; 24 h; SM minimal medium
Where a name gives a salt, the structure may show the parent alone.
measured_metric: mean cell size
Reply: number alone, nothing else.

As a guide, the following entries are already answered.
molecule	measured
CC(NC(C)(C)C)C(=O)c1cccc(Cl)c1 (stereo not drawn) [Amfebutamone (Bupropion) HCl]	12.5
C#C[C@]1(O)C=C[C@H]2[C@@H]3CCC4=CC(=O)CC[C@@H]4[C@H]3CC[C@@]21CC	12.5
CCOC(=O)Nc1ccc(NCc2ccc(F)cc2)cc1N [Retigabine]	12.6

q: Could you share what mean cell size was measured for Nc1nc(N)nc(NC2CC2)n1 , tested on Saccharomyces cerevisiae BY4741 SeMeCo community?
a: 12.5

q: # returns recorded mean cell size (system: Saccharomyces cerevisiae BY4741 SeMeCo community) for C[C@@H]1O[C@@H](O[C@H]2C[C@@H](O)[C@]3(CO)[C@H]4[C@H](O)C[C@]5(C)[C@@H](C6=CC(=O)OC6)CC[C@]5(O)[C@@H]4CC[C@]3(O)C2)[C@H](O)[C@H](O)[C@H]1O
a: 12.3

q: Find the measured mean cell size: item Cn1cc(C2=C(c3cn(C4CCN(Cc5ccccn5)CC4)c4ccccc34)C(=O)NC2=O)c2ccccc21 , target or system Saccharomyces cerevisiae BY4741 SeMeCo community.
a: 12.4

q: Quick check: mean cell size on Saccharomyces cerevisiae BY4741 SeMeCo community, item COc1ccc2c3c([nH]c2c1)C(C)=NCC3 ?
a: 12.4

q: Param readout= mean cell size; system= Saccharomyces cerevisiae BY4741 SeMeCo community; entry= CC[C@@]1(O)C(=O)OCc2c1cc1n(c2=O)Cc2cc3ccccc3nc2-1 ; returns value.
a: 12.3

---

System: Saccharomyces cerevisiae BY4741 SeMeCo community
assay_name: z-score of subpopulation abundance vs DMSO median, subpopulation auxotrophic for LM; higher = larger share of this subpopulation than in DMSO controls
condition: 10 µM; 24 h; SM minimal medium; subpopulation (auxotrophy): LM
Structures can show the parent of a compound that is named as a salt.
measured_metric: z-score of subpopulation abundance
Answer with a number only.

molecule	z-score of subpopulation abundance
CCN(CC)CCOC(=O)C(O)(c1ccccc1)c1ccccc1 [Benactyzine hydrochloride]	0.4
O=c1cccc2n1C[C@@H]1CNC[C@H]2C1	-0.02
O=C(O[C@H]1C[N+]2(CCCOc3ccccc3)CCC1CC2)C(O)(c1cccs1)c1cccs1 [Aclidinium Bromide]	-0.14
O=[N+]([O-])C(Br)(CO)CO	-0.89
CCCCCCCCCCCCCCCC[n+]1ccccc1 [Cetylpyridinium Chloride]	0.44
CCN(C)C(=O)Oc1cccc([C@H](C)N(C)C)c1 [Rivastigmine]	-0.54
CN[C@@H]1[C@@H](O)[C@@H](O[C@@H]2[C@@H](O)[C@H](O[C@H]3O[C@H]([C@@H](C)O)[C@@H](O)[C@H](O)[C@H]3N)[C@@H](N)C[C@H]2N)OC[C@]1(C)O [Geneticin (G418 Sulfate)]	0.61
CN1c2ccccc2C(NCCCCCCC(=O)O)c2ccc(Cl)cc2S1(=O)=O (centres undefined) [Tianeptine sodium]	-0.12

Now turn to the next molecule.
q: Returns the measured z-score of subpopulation abundance for the input molecule. Input: COC(=O)C1=CCCN(C)C1
a: 0.61

---

Tested on: Saccharomyces cerevisiae BY4741 SeMeCo community
assay_name: z-score of prototroph abundance vs DMSO median; higher = larger share of this subpopulation than in DMSO controls
condition: 10 µM; 24 h; SM minimal medium; subpopulation (auxotrophy): Prototroph
Below, each of the compounds is paired with its reported z-score of prototroph abundance value.
// return a plain number; no unit text

Known results for compounds:
compound	measured_metric	measured
Nc1nc(N)nc(NC2CC2)n1	z-score of prototroph abundance	-1.21
C[C@@H]1O[C@@H](O[C@H]2C[C@@H](O)[C@]3(CO)[C@H]4[C@H](O)C[C@]5(C)[C@@H](C6=CC(=O)OC6)CC[C@]5(O)[C@@H]4CC[C@]3(O)C2)[C@H](O)[C@H](O)[C@H]1O	z-score of prototroph abundance	0.81
C=CN1CCCC1=O.II	z-score of prototroph abundance	-1.1

Please find the next compound below.
q: Requested field: z-score of prototroph abundance. Item: COc1ccc(C(CN(C)C)C2(O)CCCCC2)cc1 (centres undefined) [Venlafaxine]
a: 0.19

---

Test system: Saccharomyces cerevisiae BY4741 SeMeCo community
assay_name: z-score of subpopulation abundance vs DMSO median, subpopulation auxotrophic for M; higher = larger share of this subpopulation than in DMSO controls
condition: 10 µM; 24 h; SM minimal medium; subpopulation (auxotrophy): M
Where a name gives a salt, the structure may show the parent alone.
z-score of subpopulation abundance vs -0.1: at or above is Fulfilled, below is Not fulfilled.

For orientation, consider the following solved cases.
> print(dat)
                                   compound       category
1             Cc1cc(O)ccc1Cl [Chlorocresol]      Fulfilled
2  N#Cc1nn(-c2c(Cl)cc(C(F)(F)F)cc2Cl)c(N)c1[S+]([O-])C(F)(F)F (centres undefined) [Fipronil]  Not fulfilled

q: For this compound, is measured z-score of subpopulation abundance -0.1 or higher? N[C@@H]1C[C@H]1c1ccccc1 [Tranylcypromine (2-PCPA) HCl]
a: Not fulfilled

q: Is z-score of subpopulation abundance at least -0.1? Consider CCOC(=O)Nc1ccc(NCc2ccc(F)cc2)cc1N [Retigabine]
a: Fulfilled

q: Does the compound C#C[C@]1(O)C=C[C@H]2[C@@H]3CCC4=CC(=O)CC[C@@H]4[C@H]3CC[C@@]21CC [Gestodene] have recorded z-score of subpopulation abundance that is -0.1 or more?
a: Fulfilled

q: Could you tell me if the measured z-score of subpopulation abundance of COc1ccc2c3c([nH]c2c1)C(C)=NCC3 [Harmaline] reaches -0.1 or more?
a: Fulfilled

q: Say whether O=C(O[C@H]1C[C@H]2CC[C@@H](C1)[N+]21CCCC1)C(O)(c1ccccc1)c1ccccc1 [Trospium chloride] shows z-score of subpopulation abundance of -0.1 or more.
a: Fulfilled

q: z-score of subpopulation abundance >= -0.1 for O=c1cccc2n1C[C@@H]1CNC[C@H]2C1 [Cytisine] ?
a: Not fulfilled

q: Determine whether this compound has z-score of subpopulation abundance no lower than -0.1: O=C(O[C@H]1C[N+]2(CCCOc3ccccc3)CCC1CC2)C(O)(c1cccs1)c1cccs1 [Aclidinium Bromide]
a: Fulfilled

---

Test system: Saccharomyces cerevisiae BY4741 SeMeCo community
assay_name: z-score of subpopulation abundance vs DMSO median, subpopulation auxotrophic for HLU; higher = larger share of this subpopulation than in DMSO controls
condition: 10 µM; 24 h; SM minimal medium; subpopulation (auxotrophy): HLU
Each record's z-score of subpopulation abundance is compared with lo = under -0.6, mid = from -0.6 up to 0.2, hi = 0.2 and over to give its class.

Worked set:
> print(dat)
                                   compound                            assayed.system  category
1  O=C(O[C@H]1C[C@H]2CC[C@@H](C1)[N+]21CCCC1)C(O)(c1ccccc1)c1ccccc1 [Trospium chloride]  Saccharomyces cerevisiae BY4741 SeMeCo community       mid
2  N#Cc1nn(-c2c(Cl)cc(C(F)(F)F)cc2Cl)c(N)c1[S+]([O-])C(F)(F)F (centres undefined) [Fipronil]  Saccharomyces cerevisiae BY4741 SeMeCo community        lo
3              NC(=O)CN1CCCC1=O [Piracetam]  Saccharomyces cerevisiae BY4741 SeMeCo community        hi

q: Pick a category. Item: C=CN1CCCC1=O.II [Povidone iodine]
a: hi

q: Which band does CCN1CC2(OC(=O)c3ccccc3NC(C)=O)CCC(OC)C34C1C(CC23)C1(O)CC(OC)C2CC4C1(O)C2OC (centres undefined) [Lappaconitine] fall in?
a: mid

From: the supplement of paper PMC8975748
